system: HARA; test: relative viability (nuclei count vs DMSO), 5 days (fraction); higher = more cells survive; conditions: first compound 1 µM
Decision: relative viability beneath 0.4 gives fulfilled; relative viability meeting or exceeding 0.4 gives not fulfilled.

A record lists CCN(CC)CCCCNc1ncc2cc(-c3cc(OC)cc(OC)c3)c(NC(=O)NC(C)(C)C)nc2n1 + CS(=O)(=O)CCNCc1ccc(-c2ccc3ncnc(Nc4ccc(OCc5cccc(F)c5)c(Cl)c4)c3c2)o1 [Lapatinib] (partner 2 µM) . Is its relative viability below 0.4?
fulfilled

A record lists O=c1cc(N2CCOCC2)oc2c(-c3cccc4c3sc3ccccc34)cccc12 + Cc1cc(Nc2cc(N3CCN(C)CC3)nc(Sc3ccc(NC(=O)C4CC4)cc3)n2)n[nH]1 [Tozasertib] (partner 0.1 µM) . Is its relative viability below 0.4?
fulfilled

A record lists CCN(CC)CCCCNc1ncc2cc(-c3cc(OC)cc(OC)c3)c(NC(=O)NC(C)(C)C)nc2n1 + Cc1nc(Nc2ncc(C(=O)Nc3c(C)cccc3Cl)s2)cc(N2CCN(CCO)CC2)n1 [Dasatinib] (partner 0.075 µM) . Is its relative viability below 0.4?
fulfilled

A record lists CCN(CC)CCCCNc1ncc2cc(-c3cc(OC)cc(OC)c3)c(NC(=O)NC(C)(C)C)nc2n1 + N=C(N)NC(=N)NCCc1ccccc1 [Phenformin] (partner 250 µM) . Is its relative viability below 0.4?
fulfilled

A record lists O=c1cc(N2CCOCC2)oc2c(-c3cccc4c3sc3ccccc34)cccc12 + COc1cccc2cc(-c3nc([C@H]4CC[C@H](C(=O)O)CC4)n4ncnc(N)c34)[nH]c12 [OSI-027] (partner 0.5 µM) . Is its relative viability below 0.4?
not fulfilled

A record lists CCN(CC)CCCCNc1ncc2cc(-c3cc(OC)cc(OC)c3)c(NC(=O)NC(C)(C)C)nc2n1 + NC(=O)Nc1cc(-c2cccc(F)c2)sc1C(=O)N[C@H]1CCCNC1 [AZD7762] (partner 0.2 µM) . Is its relative viability below 0.4?
fulfilled

A record lists O=c1cc(N2CCOCC2)oc2c(-c3cccc4c3sc3ccccc34)cccc12 + CC1(C)CCC(c2ccc(Cl)cc2)=C(CN2CCN(c3ccc(C(=O)NS(=O)(=O)c4ccc(N[C@H](CCN5CCOCC5)CSc5ccccc5)c(S(=O)(=O)C(F)(F)F)c4)cc3)CC2)C1 [Navitoclax] (partner 0.5 µM) . Is its relative viability below 0.4?
not fulfilled

A record lists CCN(CC)CCCCNc1ncc2cc(-c3cc(OC)cc(OC)c3)c(NC(=O)NC(C)(C)C)nc2n1 + O=C(c1cc(Cc2n[nH]c(=O)c3ccccc23)ccc1F)N1CCN(C(=O)C2CC2)CC1 [Olaparib] (partner 8 µM) . Is its relative viability below 0.4?
not fulfilled

A record lists CCN(CC)CCCCNc1ncc2cc(-c3cc(OC)cc(OC)c3)c(NC(=O)NC(C)(C)C)nc2n1 + Cc1nc(NC(=O)N2CCC[C@H]2C(N)=O)sc1-c1ccnc(C(C)(C)C(F)(F)F)c1 [Alpelisib] (partner 2 µM) . Is its relative viability below 0.4?
not fulfilled

A record lists O=c1cc(N2CCOCC2)oc2c(-c3cccc4c3sc3ccccc34)cccc12 + C[C@]1(O)C[C@@H](c2nc(-c3ccc4ccc(-c5ccccc5)nc4c3)c3c(N)nccn32)C1 [Linsitinib] (partner 1 µM) . Is its relative viability below 0.4?
not fulfilled

* * *

tested on: NCI-H2405; test: relative viability (nuclei count vs DMSO), 5 days (fraction); higher = more cells survive; details: first compound 0.08 µM
Give measured relative viability for each item. Keep answers brief.

// relative viability lookup, key: COc1nc(C)cnc1NS(=O)(=O)c1cccnc1-c1ccc(-c2nnco2)cc1 [Zibotentan] + Cc1nc(NC(=O)N2CCC[C@H]2C(N)=O)sc1-c1ccnc(C(C)(C)C(F)(F)F)c1 [Alpelisib] (partner 2 µM)
0.787

// relative viability lookup, key: COc1nc(C)cnc1NS(=O)(=O)c1cccnc1-c1ccc(-c2nnco2)cc1 [Zibotentan] + Cc1nc(Nc2ncc(C(=O)Nc3c(C)cccc3Cl)s2)cc(N2CCN(CCO)CC2)n1 [Dasatinib] (partner 0.075 µM)
0.238

// relative viability lookup, key: O=c1cc(-c2cccc3c2Sc2ccccc2S3)oc(N2CCOCC2)c1 + Nc1nc2[nH]cc(CCc3ccc(C(=O)N[C@@H](CCC(=O)O)C(=O)O)cc3)c2c(=O)[nH]1 [Pemetrexed] (partner 0.2 µM)
0.859

* * *

system: NCI-H1703; assay: relative viability (nuclei count vs DMSO), 5 days (fraction); higher = more cells survive; conditions: first compound 0.8 µM
Give measured relative viability for each item. Keep answers brief.

// relative viability lookup, key: O=c1cc(-c2cccc3c2Sc2ccccc2S3)oc(N2CCOCC2)c1 + O=C(c1cc(Cc2n[nH]c(=O)c3ccccc23)ccc1F)N1CCN(C(=O)C2CC2)CC1 [Olaparib] (partner 8 µM)
0.406

// relative viability lookup, key: COc1nc(C)cnc1NS(=O)(=O)c1cccnc1-c1ccc(-c2nnco2)cc1 [Zibotentan] + CC1(C)CCC(c2ccc(Cl)cc2)=C(CN2CCN(c3ccc(C(=O)NS(=O)(=O)c4ccc(N[C@H](CCN5CCOCC5)CSc5ccccc5)c(S(=O)(=O)C(F)(F)F)c4)cc3)CC2)C1 [Navitoclax] (partner 0.5 µM)
1.25

// relative viability lookup, key: COc1nc(C)cnc1NS(=O)(=O)c1cccnc1-c1ccc(-c2nnco2)cc1 [Zibotentan] + Cc1nc(NC(=O)N2CCC[C@H]2C(N)=O)sc1-c1ccnc(C(C)(C)C(F)(F)F)c1 [Alpelisib] (partner 2 µM)
0.464

// relative viability lookup, key: O=c1cc(-c2cccc3c2Sc2ccccc2S3)oc(N2CCOCC2)c1 + CC1(C)CCC(c2ccc(Cl)cc2)=C(CN2CCN(c3ccc(C(=O)NS(=O)(=O)c4ccc(N[C@H](CCN5CCOCC5)CSc5ccccc5)c(S(=O)(=O)C(F)(F)F)c4)cc3)CC2)C1 [Navitoclax] (partner 0.5 µM)
1.35

// relative viability lookup, key: COc1nc(C)cnc1NS(=O)(=O)c1cccnc1-c1ccc(-c2nnco2)cc1 [Zibotentan] + COc1cc2c(Oc3ccc(NC(=O)C4(C(=O)Nc5ccc(F)cc5)CC4)cc3F)ccnc2cc1OCCCN1CCOCC1 [Foretinib] (partner 0.25 µM)
0.395

// relative viability lookup, key: O=c1cc(-c2cccc3c2Sc2ccccc2S3)oc(N2CCOCC2)c1 + CS(=O)(=O)CCNCc1ccc(-c2ccc3ncnc(Nc4ccc(OCc5cccc(F)c5)c(Cl)c4)c3c2)o1 [Lapatinib] (partner 2 µM)
0.94

// relative viability lookup, key: O=c1cc(-c2cccc3c2Sc2ccccc2S3)oc(N2CCOCC2)c1 + CS(=O)(=O)N1CCN(Cc2cc3nc(-c4cccc5[nH]ncc45)nc(N4CCOCC4)c3s2)CC1 [Pictilisib] (partner 1 µM)
0.279

// relative viability lookup, key: O=c1cc(-c2cccc3c2Sc2ccccc2S3)oc(N2CCOCC2)c1 + CC(C)C[C@H](NC(=O)[C@H](Cc1ccccc1)NC(=O)c1cnccn1)B(O)O [Bortezomib] (partner 0.002 µM)
0.384

* * *

test system: EBC-1; assay: relative viability (nuclei count vs DMSO), 5 days (fraction); higher = more cells survive; settings: first compound 1 µM
PARAMETER: relative viability
Just the number, please, no unit attached.

// relative viability lookup, key: CCN(CC)CCCCNc1ncc2cc(-c3cc(OC)cc(OC)c3)c(NC(=O)NC(C)(C)C)nc2n1 + CC(C)C[C@H](NC(=O)[C@H](Cc1ccccc1)NC(=O)c1cnccn1)B(O)O [Bortezomib] (partner 0.002 µM)
0.458

// relative viability lookup, key: CCN(CC)CCCCNc1ncc2cc(-c3cc(OC)cc(OC)c3)c(NC(=O)NC(C)(C)C)nc2n1 + O=C(c1cc(Cc2n[nH]c(=O)c3ccccc23)ccc1F)N1CCN(C(=O)C2CC2)CC1 [Olaparib] (partner 8 µM)
0.705

// relative viability lookup, key: O=c1cc(N2CCOCC2)oc2c(-c3cccc4c3sc3ccccc34)cccc12 + CC(C)C[C@H](NC(=O)[C@H](Cc1ccccc1)NC(=O)c1cnccn1)B(O)O [Bortezomib] (partner 0.002 µM)
0.49

// relative viability lookup, key: O=c1cc(N2CCOCC2)oc2c(-c3cccc4c3sc3ccccc34)cccc12 + C[C@]1(O)C[C@@H](c2nc(-c3ccc4ccc(-c5ccccc5)nc4c3)c3c(N)nccn32)C1 [Linsitinib] (partner 1 µM)
0.993

* * *

Give measured relative viability for each item. Keep answers brief.
test system: A-427; assay: relative viability (nuclei count vs DMSO), 5 days (fraction); higher = more cells survive; details: first compound 1 µM

// relative viability lookup, key: CCN(CC)CCCCNc1ncc2cc(-c3cc(OC)cc(OC)c3)c(NC(=O)NC(C)(C)C)nc2n1 + NC(=O)Nc1cc(-c2cccc(F)c2)sc1C(=O)N[C@H]1CCCNC1 [AZD7762] (partner 0.2 µM)
0.421

// relative viability lookup, key: CCN(CC)CCCCNc1ncc2cc(-c3cc(OC)cc(OC)c3)c(NC(=O)NC(C)(C)C)nc2n1 + O=C(c1cc(Cc2n[nH]c(=O)c3ccccc23)ccc1F)N1CCN(C(=O)C2CC2)CC1 [Olaparib] (partner 8 µM)
0.685

// relative viability lookup, key: O=c1cc(N2CCOCC2)oc2c(-c3cccc4c3sc3ccccc34)cccc12 + CC1(C)CCC(c2ccc(Cl)cc2)=C(CN2CCN(c3ccc(C(=O)NS(=O)(=O)c4ccc(N[C@H](CCN5CCOCC5)CSc5ccccc5)c(S(=O)(=O)C(F)(F)F)c4)cc3)CC2)C1 [Navitoclax] (partner 0.5 µM)
0.959

// relative viability lookup, key: O=c1cc(N2CCOCC2)oc2c(-c3cccc4c3sc3ccccc34)cccc12 + O=C(CCCCCCC(=O)Nc1ccccc1)NO [Vorinostat] (partner 1 µM)
0.86
